Would you kindly list Time for each of these molecules?
- System: Rattus norvegicus
- assay.procedure: Neuromuscular block activity in propofol-induced anesthetized Sprague-Dawley rat model assessed as onset time required for twitch reduction at 0.04 mg/kg, iv
- Assay type: functional
Numbers only, in s.

Past entries and their recorded results:
{"columns": ["compound", "Time (s)"],
 "data": [
  ["Cc1n2cc[n+]1Cc1ccc(cc1)Oc1ccc(cc1)C[n+]1ccn(c1C)CCCCn1cc[n+](c1C)Cc1ccc(cc1)Oc1ccc(cc1)C[n+]1ccn(c1C)CCCC2.[Cl-].[Cl-].[Cl-].[Cl-]", 102],
  ["Cc1n2cc[n+]1Cc1ccc(cc1)Oc1ccc(cc1)C[n+]1ccn(c1C)CCCn1cc[n+](c1C)Cc1ccc(cc1)Oc1ccc(cc1)C[n+]1ccn(c1C)CCC2.[Cl-].[Cl-].[Cl-].[Cl-]", 90]
]}

# per-item lookup of Time; items listed below
1. [Cl-].[Cl-].[Cl-].[Cl-].c1cc2ccc1C[n+]1ccn(c1)CCCCCn1cc[n+](c1)Cc1ccc(cc1)Oc1ccc(cc1)C[n+]1ccn(c1)CCCCCn1cc[n+](c1)Cc1ccc(cc1)O2
2. Cc1n2cc[n+]1Cc1ccc(cc1)Oc1ccc(cc1)C[n+]1ccn(c1C)CCCCCCCn1cc[n+](c1C)Cc1ccc(cc1)Oc1ccc(cc1)C[n+]1ccn(c1C)CCCCCCC2.[Cl-].[Cl-].[Cl-].[Cl-]
3. CCc1n2cc[n+]1Cc1ccc(cc1)Oc1ccc(cc1)C[n+]1ccn(c1CC)CCCCCn1cc[n+](c1CC)Cc1ccc(cc1)Oc1ccc(cc1)C[n+]1ccn(c1CC)CCCCC2.[Cl-].[Cl-].[Cl-].[Cl-]

Data returned:
1: 138; 2: 498; 3: 222

* * *

- assay.procedure: Toxicity in iv dosed ICR mouse assessed as maximum tolerated dose
- Format: organism-based
- test.settings: in vivo
property: MTD (mg/kg)
Numbers only, in mg/kg.

Looking up Cc1n2cc[n+]1Cc1ccc(cc1)Oc1ccc(cc1)C[n+]1ccn(c1C)CCCn1cc[n+](c1C)Cc1ccc(cc1)Oc1ccc(cc1)C[n+]1ccn(c1C)CCC2.[Cl-].[Cl-].[Cl-].[Cl-] , I found its MTD recorded as 550

* * *

- Tested on: Rattus norvegicus
- assay.procedure: Neuromuscular block activity in propofol-induced anesthetized iv dosed Sprague-Dawley rat model assessed as minimum dose for complete neuromuscular block
- Assay type: functional
- test.settings: read-out: MED
property: minimal effective dose (mg/kg)
Give bare numbers, in mg/kg.

Past entries and their recorded results:
{"columns": ["compound", "assay.system", "unit.info", "minimal effective dose"],
 "data": [
  ["[Cl-].[Cl-].[Cl-].[Cl-].c1cc2cc(c1)Cn1cc[n+](c1)Cc1ccc(cc1)Oc1ccc(cc1)C[n+]1ccn(c1)Cc1cccc(c1)Cn1cc[n+](c1)Cc1ccc(cc1)Oc1ccc(cc1)C[n+]1ccn(c1)C2", "Rattus norvegicus", "mg/kg", 0.16],
  ["[Cl-].[Cl-].[Cl-].[Cl-].c1cc2cc(c1)Cn1cc[n+](c1)Cc1ccc(cc1)Cc1ccc(cc1)C[n+]1ccn(c1)Cc1cccc(c1)Cn1cc[n+](c1)Cc1ccc(cc1)Cc1ccc(cc1)C[n+]1ccn(c1)C2", "Rattus norvegicus", "mg/kg", 2]
]}

Could you now look at the following molecule, please?
Looking up Cc1n2cc[n+]1Cc1ccc(cc1)Oc1ccc(cc1)C[n+]1ccn(c1C)Cc1cccc(c1)Cn1cc[n+](c1C)Cc1ccc(cc1)Oc1ccc(cc1)C[n+]1ccn(c1C)Cc1cccc(c1)C2.[Cl-].[Cl-].[Cl-].[Cl-] , I found its minimal effective dose recorded as 0.1

* * *

- System: Rattus norvegicus
- assay.procedure: Neuromuscular block activity in propofol-induced anesthetized iv dosed Sprague-Dawley rat model assessed as minimum dose for complete neuromuscular block
- Type: functional
- test.settings: read-out: MED
Would you kindly list minimal effective dose for each of these molecules?

{"columns": ["compound", "assay.system", "property", "test.result"],
 "data": [
  ["O=C(O)c1cc2cc(c1)Cn1cc[n+](c1)Cc1ccc(cc1)-c1ccc(cc1)C[n+]1ccn(c1)Cc1cc(cc(C(=O)O)c1)Cn1cc[n+](c1)Cc1ccc(cc1)-c1ccc(cc1)C[n+]1ccn(c1)C2.[Cl-].[Cl-].[Cl-].[Cl-]", "Rattus norvegicus", "minimal effective dose", "1.2 mg/kg"],
  ["COC(=O)c1cc2cc(c1)Cn1cc[n+](c1)Cc1ccc(cc1)Oc1ccc(cc1)C[n+]1ccn(c1)Cc1cc(cc(C(=O)OC)c1)Cn1cc[n+](c1)Cc1ccc(cc1)Oc1ccc(cc1)C[n+]1ccn(c1)C2.[Cl-].[Cl-].[Cl-].[Cl-]", "Rattus norvegicus", "minimal effective dose", "0.6 mg/kg"],
  ["[Cl-].[Cl-].[Cl-].[Cl-].c1cc2ccc1Cc1ccc(cc1)C[n+]1ccn(c1)Cc1ccc(o1)Cn1cc[n+](c1)Cc1ccc(cc1)Cc1ccc(cc1)C[n+]1ccn(c1)Cc1ccc(o1)Cn1cc[n+](c1)C2", "Rattus norvegicus", "minimal effective dose", "5 mg/kg"]
]}

# per-item lookup of minimal effective dose; items listed below
1. [Cl-].[Cl-].[Cl-].[Cl-].c1cc2ccc1Cn1cc[n+](c1)Cc1ccc(cc1)-c1ccc(cc1)C[n+]1ccn(c1)Cc1ccc(cc1)Cn1cc[n+](c1)Cc1ccc(cc1)-c1ccc(cc1)C[n+]1ccn(c1)C2
2. [Cl-].[Cl-].[Cl-].[Cl-].c1cc2cc(c1)Cn1cc[n+](c1)Cc1ccc(cc1)-c1ccc(cc1)C[n+]1ccn(c1)Cc1cccc(c1)Cn1cc[n+](c1)Cc1ccc(cc1)-c1ccc(cc1)C[n+]1ccn(c1)C2
3. COC(=O)c1cc2cc(c1)Cn1cc[n+](c1)Cc1ccc(cc1)-c1ccc(cc1)C[n+]1ccn(c1)Cc1cc(cc(C(=O)OC)c1)Cn1cc[n+](c1)Cc1ccc(cc1)-c1ccc(cc1)C[n+]1ccn(c1)C2.[Cl-].[Cl-].[Cl-].[Cl-]

Data returned:
1.2 mg/kg
0.6 mg/kg
1.5 mg/kg

# per-item lookup of minimal effective dose; items listed below
1. [Cl-].[Cl-].[Cl-].[Cl-].c1cc2ccc1Cc1ccc(cc1)C[n+]1ccn(c1)Cc1ccc(cc1)Cn1cc[n+](c1)Cc1ccc(cc1)Cc1ccc(cc1)C[n+]1ccn(c1)Cc1ccc(cc1)Cn1cc[n+](c1)C2
2. [Cl-].[Cl-].[Cl-].[Cl-].c1cc2ccc1Cn1cc[n+](c1)Cc1ccc(cc1)Oc1ccc(cc1)C[n+]1ccn(c1)Cc1ccc(cc1)Cn1cc[n+](c1)Cc1ccc(cc1)Oc1ccc(cc1)C[n+]1ccn(c1)C2
3. O=C(O)c1cc2cc(c1)Cn1cc[n+](c1)Cc1ccc(cc1)Oc1ccc(cc1)C[n+]1ccn(c1)Cc1cc(cc(C(=O)O)c1)Cn1cc[n+](c1)Cc1ccc(cc1)Oc1ccc(cc1)C[n+]1ccn(c1)C2.[Cl-].[Cl-].[Cl-].[Cl-]

Data returned:
1.8 mg/kg
0.9 mg/kg
1 mg/kg

* * *

- Tested on: Rattus norvegicus
- assay.procedure: Neuromuscular block activity in propofol-induced anesthetized Sprague-Dawley rat model assessed as inhibition of twitch by measuring twitch intensity of quadriceps muscle at 0.04 mg/kg, iv administered as bolus dose by TOF watch monitor analysis relative to control
- Assay type: functional
Would you kindly list inhibition in vivo at 0.04 mg/kg for each of these compounds?
Answers are plain numbers, in %.

{"columns": ["compound", "inhibition in vivo at 0.04 mg/kg (%)"],
 "data": [
  ["Cc1n2cc[n+]1Cc1ccc(cc1)Oc1ccc(cc1)C[n+]1ccn(c1C)CCCn1cc[n+](c1C)Cc1ccc(cc1)Oc1ccc(cc1)C[n+]1ccn(c1C)CCC2.[Cl-].[Cl-].[Cl-].[Cl-]", 90],
  ["Cc1n2cc[n+]1Cc1ccc(cc1)Oc1ccc(cc1)C[n+]1ccn(c1C)CCCCCn1cc[n+](c1C)Cc1ccc(cc1)Oc1ccc(cc1)C[n+]1ccn(c1C)CCCCC2.[Cl-].[Cl-].[Cl-].[Cl-]", 58],
  ["Cc1n2cc[n+]1Cc1ccc(cc1)Oc1ccc(cc1)C[n+]1ccn(c1C)CCCCCCCn1cc[n+](c1C)Cc1ccc(cc1)Oc1ccc(cc1)C[n+]1ccn(c1C)CCCCCCC2.[Cl-].[Cl-].[Cl-].[Cl-]", 100],
  ["Cc1n2cc[n+]1Cc1cccc(c1)C[n+]1ccn(c1C)CCCn1cc[n+](c1C)Cc1cccc(c1)C[n+]1ccn(c1C)CCC2", 0]
]}

Could you now look at the following compound, please?
Looking up CCc1n2cc[n+]1Cc1ccc(cc1)Oc1ccc(cc1)C[n+]1ccn(c1CC)CCCCCn1cc[n+](c1CC)Cc1ccc(cc1)Oc1ccc(cc1)C[n+]1ccn(c1CC)CCCCC2.[Cl-].[Cl-].[Cl-].[Cl-] , I found its inhibition in vivo at 0.04 mg/kg recorded as 100

* * *

- assay.procedure: Hemolytic activity in rat RBC assessed as hemolysis rate at 2048 microg/ml relative to control
- Format: toxicity, cell-based, Erythrocyte
- test.settings: red blood cells, at 2048 µg/mL, read-out: Activity
property: hemolysis at 2048 microg/ml

Looking up Cc1n2cc[n+]1Cc1ccc(cc1)Oc1ccc(cc1)C[n+]1ccn(c1C)CCCn1cc[n+](c1C)Cc1ccc(cc1)Oc1ccc(cc1)C[n+]1ccn(c1C)CCC2.[Cl-].[Cl-].[Cl-].[Cl-] , I found its hemolysis at 2048 microg/ml recorded as < 5%

Data origin: ChEMBL document CHEMBL6109061
